System: FGFR3-TACC3_v1 (N-FLAG) fusion polypeptide
Assay: In vitro kinase activity inhibition (HTRF KinEASE-TK)
Type: biochemical, human
Details: 10 nM, 100 μM ATP
measurement label: rate of inhibiting kinase activity v1 (%)
Numbers only, in %.

Known results for molecules:
QUERY: Suppose we examine the molecule `COc1cc(OC)c(F)c(COc2cnc(Nc3ccc(N4CCN(C)CC4)cc3)nc2)c1F` ; what rate of inhibiting kinase activity v1 value has been reported?
RESULT: 80

QUERY: For the molecule shown here, `COc1cc(OC)c(F)c(COc2cnc(Nc3cc(CN4CCN(C)CC4)n(C)n3)nc2)c1F` , give the reported rate of inhibiting kinase activity v1.
RESULT: 40

QUERY: Reported rate of inhibiting kinase activity v1 for `COc1cc(OC)c(F)c(COc2cnc(Nc3ccc(N4CCC(NCCO)CC4)cc3)nc2)c1F` : what is it?
RESULT: 84

Kindly review the next molecule as well.
QUERY: Recorded rate of inhibiting kinase activity v1 for `COc1cc(OC)c(F)c(COc2cnc(Nc3cnn(C[C@@H](O)CO)c3)nc2)c1F` , please?
RESULT: 79
